- system: human Claudin-6 (CLDN6) (human) (UniProt P56747)
- experimental-protocol: FACS, 0.3 ug Ab, ARK2 cells (2nd Ab only 1351.21)
attribute-measured: FACS fluorescence

{"binder": "AB1-8 (antibody, V domains shown, humanized) VH: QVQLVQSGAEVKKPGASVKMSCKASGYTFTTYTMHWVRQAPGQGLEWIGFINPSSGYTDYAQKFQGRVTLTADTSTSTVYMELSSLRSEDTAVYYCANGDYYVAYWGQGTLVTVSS VL: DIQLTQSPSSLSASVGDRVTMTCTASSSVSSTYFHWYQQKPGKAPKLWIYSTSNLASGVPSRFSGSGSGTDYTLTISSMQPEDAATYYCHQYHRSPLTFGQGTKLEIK", "result": 5810}

Task: For the binder AB4-3 (antibody, V domains shown, humanized) VH: QVQLVQSGAEVKKPGASVKVSCKASGYTFTSYTMHWVRQAPGQGLEWMGYINPSSTYTHYAQKFQGRVTMTADTSTSTVYMELSSLRSEDTAVYYCSRGELGGFAYWGQGTLVTVSS VL: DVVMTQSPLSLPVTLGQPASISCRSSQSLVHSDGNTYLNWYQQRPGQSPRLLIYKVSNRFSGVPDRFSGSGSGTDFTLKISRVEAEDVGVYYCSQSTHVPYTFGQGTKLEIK , report FACS fluorescence.
Result: 1190

Task: For the binder AB4-chim (antibody, V domains shown) VH: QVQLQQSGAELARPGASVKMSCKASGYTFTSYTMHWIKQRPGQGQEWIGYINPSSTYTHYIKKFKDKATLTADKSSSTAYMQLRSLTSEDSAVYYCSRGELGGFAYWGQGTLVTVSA VL: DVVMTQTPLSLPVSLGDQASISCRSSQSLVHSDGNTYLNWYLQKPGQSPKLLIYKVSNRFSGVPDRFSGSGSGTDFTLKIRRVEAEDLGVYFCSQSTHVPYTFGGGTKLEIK , report FACS fluorescence.
Result: 19100

Task: For the binder AB18-6 (antibody, V domains shown) VH: QVQLVQSGAEVKKPGASVKISCKASGYSFTGYNMNWVRQAPGQGLEWIGNIDPYYGGSTYAQKFQGRATLTVDTSTSTAYMELSSLRSEDTAVYYCARERSGYVFSAMDYWGQGTLVTVSS VL: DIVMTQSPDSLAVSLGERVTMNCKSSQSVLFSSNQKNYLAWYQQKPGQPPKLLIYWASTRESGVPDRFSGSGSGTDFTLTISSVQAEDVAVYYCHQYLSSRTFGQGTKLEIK , report FACS fluorescence.
Result: 1390
